Reported MIC values follow for various compounds
- Tested on: Mycobacterium avium
- measurement_context: in vivo, 72 h
- Description: Antimycobacterial activity against Mycobacterium avium 104 mc'2 3 assessed as reduction in bacterial viability incubated for 3 days by MTT assay
Return type: number; implicit unit µg/mL.

Below, each entry is followed by its recorded MIC result.
[[record]]
compound = "CCCOc1ccc(-c2cn(CCN3CCN(Cc4ccccc4)CC3)c3ccccc3c2=O)cc1"
unit_abbrev = "µg/mL"
recorded_value = 256

[[record]]
compound = "CCCOc1ccc(-c2cn(CCN3CCCCCC3)c3ccccc3c2=O)cc1"
unit_abbrev = "µg/mL"
recorded_value = 256

[[record]]
compound = "COc1ccc(CCN(C)CCCC(C#N)(c2ccc(OC)c(OC)c2)C(C)C)cc1OC (centres undefined)"
unit_abbrev = "µg/mL"
recorded_value = 800

[[record]]
compound = "CC1COc2c(N3CCN(C)CC3)c(F)cc3c(=O)c(C(=O)O)cn1c23 (centres undefined)"
unit_abbrev = "µg/mL"
recorded_value = 16

[[record]]
compound = "CCCOc1ccc(-c2cn(CCN(CC)CC)c3ccccc3c2=O)cc1"
unit_abbrev = "µg/mL"
recorded_value = 256


Kindly review the next compound as well.
// recorded MIC for O=C(O)c1cn(C2CC2)c2cc(N3CCNCC3)c(F)cc2c1=O : 16

###

- Tested on: Mycobacterium avium
- measurement_context: 104 mc'2 3
Reported MIC values follow for various compounds
Return type: number; implicit unit µg/mL.

[[record]]
compound = "CCCOc1ccc(-c2cn(CCN3CCCCC3)c3ccccc3c2=O)cc1"
unit_abbrev = "µg/mL"
recorded_value = 3.12

[[record]]
compound = "CCCOc1ccc(-c2cn(CCN(CC)CC)c3ccccc3c2=O)cc1"
unit_abbrev = "µg/mL"
recorded_value = 6.25


// recorded MIC for CSc1ccc2c(c1)N(CCC1CCCCN1C)c1ccccc1S2 (stereo not given) [THIORIDAZINE] : 12.5

// recorded MIC for CN(C)CCCN1c2ccccc2Sc2ccc(Cl)cc21 [CHLORPROMAZINE] : 6.25

// recorded MIC for CCCOc1ccc(-c2cn(CCN3CCCCCC3)c3ccccc3c2=O)cc1 : 0.78

###

Reported MIC values follow for various compounds
- Tested on: Mycobacterium avium
- measurement_context: 104 mc'2 4
Return type: number; implicit unit µg/mL.

Below, each entry is followed by its recorded MIC result.
[[record]]
compound = "CSc1ccc2c(c1)N(CCC1CCCCN1C)c1ccccc1S2 (stereo not given)"
tested_target = "Mycobacterium avium"
unit_abbrev = "µg/mL"
recorded_value = 256

[[record]]
compound = "CCCOc1ccc(-c2cn(CCN(CC)CC)c3ccccc3c2=O)cc1"
tested_target = "Mycobacterium avium"
unit_abbrev = "µg/mL"
recorded_value = 256


Kindly review the next compound as well.
// recorded MIC for CN(C)CCCN1c2ccccc2Sc2ccc(Cl)cc21 : 512

###

- Tested on: Mycobacterium avium
- measurement_context: isolate MAV1
- Description: Inhibition of multidrug resistance efflux pump in Mycobacterium avium isolate MAV1 assessed as potentiation of ciprofloxacin-induced antibacterial activity by measuring ciprofloxacin MIC at 1/4 MIC incubated for 3 days by MTT assay
Reported MIC values follow for various compounds
Return type: number; implicit unit µg/mL.

Below, each entry is followed by its recorded MIC result.
[[record]]
compound = "CCCOc1ccc(-c2cn(CCN3CCCCC3)c3ccccc3c2=O)cc1"
unit_abbrev = "µg/mL"
recorded_value = 2

[[record]]
compound = "CN(C)CCCN1c2ccccc2Sc2ccc(Cl)cc21"
unit_abbrev = "µg/mL"
recorded_value = 1

[[record]]
compound = "CCCOc1ccc(-c2cn(CCN(CC)CC)c3ccccc3c2=O)cc1"
unit_abbrev = "µg/mL"
recorded_value = 2


// recorded MIC for CCCOc1ccc(-c2cn(CCN3CCCCCC3)c3ccccc3c2=O)cc1 : 0.5

// recorded MIC for CSc1ccc2c(c1)N(CCC1CCCCN1C)c1ccccc1S2 (stereo not given) : 0.5
